% mRNA inhibition Avg overview
- System: PAPD5 mRNA
- test.description: PAPD5 mRNA inhibition in HBV infected dHepaRG cells, transfection (Example 9, Table 20)
- Assay type: cell-based, human
- condition.details: 500 nM, day 5 post-transfection
Number in %, nothing else.

Completed entries (count: 2):
substance | unit.abbreviation | numeric.readout
56_1 (antisense CAgtaggaatgtggCTT; modified antisense gapmer, as printed in the source, key not given here) | % | 90.7
92_1 (GTatctttctgtacTATT; LNA gapmer modifications, as printed in the source, key not given here) | % | 80.5

Moving on to another substance below.
Name the reported % mRNA inhibition Avg value associated with the substance 54_1 (antisense TTCAacctttactgcAT; modified antisense gapmer, as printed in the source, key not given here) 75.6
